Origin of measurements: patent US12466849B2

- Tested on: influenza A(H1N1)
READOUT_NAME: pEC50
Give only the number. pEC50 is defined as minus log10 of concentration in molar units.

Q) // lookup pEC50 for O=c1ccn([C@@H]2OC(CO)=C[C@H]2O)c(=O)[nH]1
A) 3.25

----------
Reported clearance values follow for various compounds
- ASSAY_PROTOCOL: in vivo
- CONDITION_LABEL: male, Sprague-Dawley, rat, iv, 10 mg/kg, CL
Expressed in mL/min/kg, but write only the number.

Q) GET /values?readout=clearance&item= CCCCCCCCCCCCCCCCOCCCOP(=O)(O)CO[C@H](CO)Cn1ccc(N)nc1=O
A) 33.3

---
Q) # lookup: clearance of CCCCCCCCCCCCCCCCOCCCOP(=O)(O)OCC1=C[C@H](O)[C@H](n2cnc3c(=O)[nH]c(N)nc32)O1
A) 28.3

----------
Each entry below carries its reported CC50 at 6 days.
- ASSAY_PROTOCOL: MRC-5 cytotoxicity assay (MTS) and visual cytotoxicity
- CONDITION_LABEL: human

Q) For the compound shown here, CCCCCCCCCCCCCCCCOCCCOP(=O)(O)OCC1=C[C@H](O)[C@H](n2cnc3c(=O)[nH]c(N)nc32)O1 [AB23040] , give the reported CC50 at 6 days.
A) > 100 µM

More entries:
Q) Form field: reported CC50 at 6 days of Nc1nc2c(ncn2[C@@H]2OC(CO)=CC2O)c(=O)[nH]1 (stereo partly drawn) [AB21651]
A) > 100 µM

Q) Request: CCCCCCCCCCCCCCCCOCCCOP(=O)(O)OCC1=CC(O)C(n2ccc(=O)[nH]c2=O)O1 (stereo not drawn) [AB23039]
A) 42.2 µM

----------
- ASSAY_PROTOCOL: in vitro
- CONDITION_LABEL: human
READOUT_NAME: CC50 (µg/mL)
Your answer should be a plain number; it is taken to be in µg/mL.

Q) Field request: CC50 | item: CC(C)S(=O)(=O)n1c(N)nc2ccc(/C(=N/O)c3ccccc3)cc21
A) 5.5

----------
pEC50 values by entry
- System: Powassan virus (POWV)
- ASSAY_PROTOCOL: microbe, parasite or virus in culture
- CONDITION_LABEL: BHK-21
pEC50: −log10 of the molar value.

Q) API: value(readout=pEC50, system=Powassan virus (POWV)) for record Nc1nc2c(ncn2[C@@H]2OC(CO)=CC2O)c(=O)[nH]1 (some centres unmarked)
A) < 2.70

# next compound below
Q) Powassan virus (POWV) / pEC50 / Nc1ccn([C@@H]2OC(CO)=C[C@H]2O)c(=O)n1 [AB21650, 3′-deoxy-3′,4′-didehydro cytidine] : value?
A) < 2.70

----------
- ASSAY_PROTOCOL: in vivo
- CONDITION_LABEL: male, Sprague-Dawley, rat, po, 10 mg/kg, AUCInf
AUC(0-inf): recorded values
State just the number; it will be interpreted in µM·h.

Q) Query: AUC(0-inf); subject: CCCCCCCCCCCCCCCCOCCCOP(=O)(O)OCC1=C[C@H](O)[C@H](n2cnc3c(=O)[nH]c(N)nc32)O1
A) 0.503

Q) And CCCCCCCCCCCCCCCCOCCCOP(=O)(O)CO[C@H](CO)Cn1ccc(N)nc1=O ?
A) 1.2
